test: Half life in mouse at 10 mg/kg, ip by LC-MS analysis; type: ADME, organism-based; settings: in vivo
MEASUREMENT_TYPE: half-life (h)
Please state the figure in h; there is no need to write the unit.

Entry `COc1cc2nc(C)nc(N[C@H](C)c3cc(N)cc(C(F)(F)F)c3)c2cc1C1CCN(C(=O)CCCCCC(=O)N[C@H](C(=O)N2C[C@H](O)C[C@H]2C(=O)N[C@@H](C)c2ccc(-c3scnc3C)cc2)C(C)(C)C)CC1` : reported half-life = ?
9.69

---

experiment: AUC in mouse at 10 mg/kg, ip by LC-MS analysis; format: ADME, organism-based; conditions: in vivo
MEASUREMENT_TYPE: AUC (ng·h/mL)
Please state the figure in ng·h/mL; there is no need to write the unit.

Entry `COc1cc2nc(C)nc(N[C@H](C)c3cc(N)cc(C(F)(F)F)c3)c2cc1C1CCN(C(=O)CCCCCC(=O)N[C@H](C(=O)N2C[C@H](O)C[C@H]2C(=O)N[C@@H](C)c2ccc(-c3scnc3C)cc2)C(C)(C)C)CC1` : reported AUC = ?
14100
